Ref: PubChem BioAssay (NCI)

test system: KM12 colon; assay: NCI-60 one-dose screen, 48 h; conditions: 10 µM unless noted
The panel holds about 83,000 compounds, 20% with a hit somewhere; the sample as a whole holds those more often. Activity calls are given as the source filed them. Rule for the calls: active = growth percent below 10; inactive = the rest.
Response enum: 1 (yes) (active), 0 (no) (inactive)

O=S(=O)(NCCNc1nccc(-c2c(-c3ccc(F)c(O)c3)nc3sccn23)n1)c1ccc(F)cc1 | 0 (no)
Cc1ccc(-c2nc(SCc3nc4cc(Cl)c(Cl)cc4[nH]3)[nH]c(=O)c2C#N)cc1 | 0 (no)
O=C(Nc1ncc(Cc2cc(C(F)(F)F)ccc2Cl)s1)c1cccs1 | 0 (no)
O=C1/C(=C\c2ccccn2)c2ccccc2N1c1c(Cl)cccc1Cl | 1 (yes)
O=C(/C=C/C12c3ccccc3C(c3ccccc31)C1C(=O)NC(=O)C12)c1ccc(Br)cc1 (centres undefined) | 0 (no)
COc1ccc(/C(C)=C(\c2ccc(Cl)cc2)c2ccc(OCCN3CCCCC3)cc2)cc1 | 0 (no)
CCOC(=O)c1cc(C(=O)c2cc(OC)c(OC)c(OC)c2)n2ccccc12 | 0 (no)
C=C1C(=O)O[C@H]2[C@H]1CC/C(COC(=O)NCc1ccc(Cn3c(=O)sn(-c4ccc(C#N)cc4)c3=O)cc1)=C\CC[C@@]1(C)O[C@@H]21 | 0 (no)

Data request: What was the test verdict on CCCCNC(=O)c1cc([N+](=O)[O-])cc(C2CCCCC2)c1O ?
Data returned: 0 (no)

* * *

system: MOLT-4 leukemia; test: NCI-60 one-dose screen, 48 h (100 = growth as untreated, 0 = no growth, -100 = all killed); conditions: 10 µM unless noted
Compounds without any hit were thinned out: in the full panel of roughly 83,000, 20% have a hit. Calls of active or inactive are those of the source. Rule for the calls: active = growth percent below 10; inactive = the rest.
Please respond with reported growth for every item in the list.

COc1ccc(/C=C/C(=O)c2cc(OC)c(OC)c(OC)c2)cc1OCC(=O)Nc1nc2ccc(OC(F)(F)F)cc2s1 | 0.429% (active)
N#C/C(=C\C=C\c1ccc(-c2cc(Cl)ccc2Cl)o1)c1nc2ccccc2s1 | 99.1% (inactive)
COc1ccc(C2=CC(c3cc(OC)c(OC)c(OC)c3)n3ncnc3N2)cc1 (centres undefined) | 17.3% (inactive)

For the 2 compounds below, give their growth values.
1. COc1ccc(-c2ccc(-c3ccc(C(=N)N)nc3)s2)cc1Cl
2. O=C(c1c[nH]c2ccccc12)c1n[nH]c(=S)n1-c1cccc(Br)c1

Data returned:
["-49.3% (active)", "90.2% (inactive)"]

// batch mode: one growth value per listed entry
1. CCN1CCN(C(=O)[C@]23CC[C@@H](C)[C@H](C)[C@@H]2C2=CC[C@@H]4[C@@]5(C)C/C(=C/c6cccnc6)C(=O)C(C)(C)[C@@H]5CC[C@@]4(C)[C@]2(C)CC3)CC1
2. COc1cc(/C=C/C(=O)c2ccc(-n3cc(CN4CCN(c5cc6c(cc5F)c(=O)c(C(=O)O)cn6C5CC5)CC4)nn3)cc2)ccc1O
3. Cn1cc(-c2csc(-c3c[nH]c4ccc(F)cc34)n2)c2ccnc(Cl)c21
4. COc1ccc(CCN2C(=O)/C(=C/c3ccc(C4Oc5ccccc5C5CC(c6ccccc6)=NN54)cc3)SC2=S)cc1 (centres undefined)

Data returned:
2.7% (active)
68.2% (inactive)
64.9% (inactive)
100% (inactive)
